Hello, the source for this data is paper PMC6407917, in case you need it.

# assayed.system: CIT (Homo sapiens, UniProt O14578)
# Sequence (O14578 whole entry): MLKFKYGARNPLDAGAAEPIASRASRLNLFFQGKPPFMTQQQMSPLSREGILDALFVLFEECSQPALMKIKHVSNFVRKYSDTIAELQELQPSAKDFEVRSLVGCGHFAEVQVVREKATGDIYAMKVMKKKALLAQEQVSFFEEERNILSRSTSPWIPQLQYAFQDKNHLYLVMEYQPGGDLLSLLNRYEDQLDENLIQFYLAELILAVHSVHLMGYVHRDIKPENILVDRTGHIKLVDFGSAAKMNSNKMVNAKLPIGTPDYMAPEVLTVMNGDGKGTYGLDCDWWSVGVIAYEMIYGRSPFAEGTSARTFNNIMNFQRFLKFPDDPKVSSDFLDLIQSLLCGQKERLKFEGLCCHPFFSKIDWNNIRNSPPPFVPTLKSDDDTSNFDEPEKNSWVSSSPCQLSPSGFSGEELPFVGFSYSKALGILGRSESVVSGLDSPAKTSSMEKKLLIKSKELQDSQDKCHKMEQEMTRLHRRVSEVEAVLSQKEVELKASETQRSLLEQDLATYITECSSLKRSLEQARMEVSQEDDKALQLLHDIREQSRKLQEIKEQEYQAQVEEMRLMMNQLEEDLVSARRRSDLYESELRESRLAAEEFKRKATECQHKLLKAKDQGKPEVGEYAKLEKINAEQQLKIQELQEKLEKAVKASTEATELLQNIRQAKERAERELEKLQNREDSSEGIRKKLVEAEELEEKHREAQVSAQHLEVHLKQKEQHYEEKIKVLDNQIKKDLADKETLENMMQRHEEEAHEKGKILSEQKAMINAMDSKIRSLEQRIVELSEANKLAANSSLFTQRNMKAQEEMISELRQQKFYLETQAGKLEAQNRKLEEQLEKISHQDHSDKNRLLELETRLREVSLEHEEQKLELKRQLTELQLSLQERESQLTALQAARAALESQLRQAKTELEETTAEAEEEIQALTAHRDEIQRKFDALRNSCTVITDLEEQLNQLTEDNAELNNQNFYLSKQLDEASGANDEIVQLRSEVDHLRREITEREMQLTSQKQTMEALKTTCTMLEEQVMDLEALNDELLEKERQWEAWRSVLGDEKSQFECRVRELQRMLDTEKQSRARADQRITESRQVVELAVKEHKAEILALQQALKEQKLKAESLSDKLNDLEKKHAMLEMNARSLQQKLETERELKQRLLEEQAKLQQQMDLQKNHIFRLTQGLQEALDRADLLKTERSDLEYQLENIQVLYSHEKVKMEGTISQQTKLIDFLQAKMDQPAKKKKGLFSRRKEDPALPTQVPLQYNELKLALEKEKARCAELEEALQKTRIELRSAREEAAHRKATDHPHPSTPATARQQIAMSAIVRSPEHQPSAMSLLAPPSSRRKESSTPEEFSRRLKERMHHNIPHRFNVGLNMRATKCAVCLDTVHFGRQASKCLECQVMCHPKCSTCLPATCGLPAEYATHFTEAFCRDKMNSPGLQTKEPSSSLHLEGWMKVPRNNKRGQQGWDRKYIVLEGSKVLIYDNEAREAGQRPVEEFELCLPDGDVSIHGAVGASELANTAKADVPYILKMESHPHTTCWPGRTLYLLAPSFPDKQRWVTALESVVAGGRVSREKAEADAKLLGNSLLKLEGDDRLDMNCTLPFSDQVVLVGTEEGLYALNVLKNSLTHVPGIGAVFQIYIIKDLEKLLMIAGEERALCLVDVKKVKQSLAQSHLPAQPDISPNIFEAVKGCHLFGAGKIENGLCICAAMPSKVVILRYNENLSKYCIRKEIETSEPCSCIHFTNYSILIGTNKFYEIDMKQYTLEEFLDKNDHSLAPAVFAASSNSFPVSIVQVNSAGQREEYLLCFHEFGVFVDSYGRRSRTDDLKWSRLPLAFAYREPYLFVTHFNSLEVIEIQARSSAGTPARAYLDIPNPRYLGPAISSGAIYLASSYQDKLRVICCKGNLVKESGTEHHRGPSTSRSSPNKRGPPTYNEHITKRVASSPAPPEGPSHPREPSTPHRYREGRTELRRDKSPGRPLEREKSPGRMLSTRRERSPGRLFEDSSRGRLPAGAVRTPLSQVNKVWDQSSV
# method.notes: biochemical
# Set-up: species or system HEK293/K-562/placenta mixed human extract; Kinobeads chemoproteomic competition binding, quantified by TMT LC-MS/MS, dose response up to 20 uM
pIC50: −log10 of the molar value.
measure: pIC50

Asked: What measured pIC50 is associated with `COc1ccccc1-c1n[nH]c2nc(N[C@H]3CC[C@H](NS(=O)(=O)CCC(F)(F)F)CC3)nc(OC)c12` on CIT (Homo sapiens, UniProt O14578)?
Given back: ≤ 4.70

---

# assayed.system: BRAF (Homo sapiens)
# Sequence (P15056 whole entry): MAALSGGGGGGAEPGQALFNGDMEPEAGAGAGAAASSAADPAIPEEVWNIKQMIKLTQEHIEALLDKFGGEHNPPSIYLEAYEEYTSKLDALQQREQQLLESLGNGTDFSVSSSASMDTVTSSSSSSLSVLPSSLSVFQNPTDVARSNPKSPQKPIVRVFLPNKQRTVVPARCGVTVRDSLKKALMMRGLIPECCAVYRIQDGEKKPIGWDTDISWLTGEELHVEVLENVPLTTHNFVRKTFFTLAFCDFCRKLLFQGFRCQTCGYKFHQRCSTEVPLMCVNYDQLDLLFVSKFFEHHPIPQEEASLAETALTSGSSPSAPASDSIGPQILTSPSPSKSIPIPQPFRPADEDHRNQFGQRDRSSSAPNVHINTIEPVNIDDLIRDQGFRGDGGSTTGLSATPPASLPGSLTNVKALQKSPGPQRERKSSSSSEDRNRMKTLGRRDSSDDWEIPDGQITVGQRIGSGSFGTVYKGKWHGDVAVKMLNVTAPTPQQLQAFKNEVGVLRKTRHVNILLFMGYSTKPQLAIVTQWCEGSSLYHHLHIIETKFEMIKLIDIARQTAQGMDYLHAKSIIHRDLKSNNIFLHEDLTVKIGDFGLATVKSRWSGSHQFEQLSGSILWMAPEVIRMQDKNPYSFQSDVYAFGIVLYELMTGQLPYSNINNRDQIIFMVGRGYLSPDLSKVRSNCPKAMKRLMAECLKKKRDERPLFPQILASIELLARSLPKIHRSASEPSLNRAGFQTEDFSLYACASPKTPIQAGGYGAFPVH
# method.notes: biochemical
# Design: species or system HEK293/K-562/placenta mixed human extract; Kinobeads chemoproteomic competition binding, quantified by TMT LC-MS/MS, dose response up to 20 uM
measure: IC50

Asked: Data request, read-out IC50, for `COc1ccccc1-c1n[nH]c2nc(N[C@H]3CC[C@H](NS(=O)(=O)CCC(F)(F)F)CC3)nc(OC)c12`
Given back: ≥ 20 µM

---

# assayed.system: DSTYK (Homo sapiens, UniProt Q6XUX3)
# Sequence (Q6XUX3 whole entry): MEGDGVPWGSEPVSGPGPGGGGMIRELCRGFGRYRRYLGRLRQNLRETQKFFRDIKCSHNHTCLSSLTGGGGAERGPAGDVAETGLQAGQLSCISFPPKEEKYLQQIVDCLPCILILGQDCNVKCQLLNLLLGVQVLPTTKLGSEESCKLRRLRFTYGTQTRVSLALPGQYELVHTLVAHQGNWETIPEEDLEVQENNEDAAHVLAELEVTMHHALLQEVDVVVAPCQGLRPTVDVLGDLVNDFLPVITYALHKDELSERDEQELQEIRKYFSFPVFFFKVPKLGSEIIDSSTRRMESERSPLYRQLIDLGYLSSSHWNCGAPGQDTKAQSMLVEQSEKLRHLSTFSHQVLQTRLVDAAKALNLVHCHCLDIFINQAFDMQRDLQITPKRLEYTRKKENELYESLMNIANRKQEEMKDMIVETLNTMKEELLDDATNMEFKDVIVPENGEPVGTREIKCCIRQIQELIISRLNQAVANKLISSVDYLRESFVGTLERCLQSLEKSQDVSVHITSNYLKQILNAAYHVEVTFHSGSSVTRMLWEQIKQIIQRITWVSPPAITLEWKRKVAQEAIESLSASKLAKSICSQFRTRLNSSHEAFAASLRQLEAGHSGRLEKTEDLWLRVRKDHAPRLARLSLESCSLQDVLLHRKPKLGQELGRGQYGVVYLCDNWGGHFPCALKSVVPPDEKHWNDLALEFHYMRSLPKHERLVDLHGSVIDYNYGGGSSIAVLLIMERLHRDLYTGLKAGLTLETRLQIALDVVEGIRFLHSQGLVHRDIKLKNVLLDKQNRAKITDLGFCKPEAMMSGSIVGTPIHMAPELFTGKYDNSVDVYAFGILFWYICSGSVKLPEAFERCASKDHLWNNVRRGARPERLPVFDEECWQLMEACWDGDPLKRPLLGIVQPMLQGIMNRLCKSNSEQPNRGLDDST
# method.notes: biochemical
# Design: species or system HEK293/K-562/placenta mixed human extract; Kinobeads chemoproteomic competition binding, quantified by TMT LC-MS/MS, dose response up to 20 uM
measure: IC50

Asked: What measured IC50 is associated with `COc1nc(N[C@H]2CC[C@H](NS(=O)(=O)CC(C)C)CC2)nc2[nH]nc(N3CCOC[C@H]3C)c12` on DSTYK (Homo sapiens, UniProt Q6XUX3)?
Given back: ≥ 20 µM

---

# assayed.system: UniProtKB Q13163
# Sequence (Q13163 whole entry): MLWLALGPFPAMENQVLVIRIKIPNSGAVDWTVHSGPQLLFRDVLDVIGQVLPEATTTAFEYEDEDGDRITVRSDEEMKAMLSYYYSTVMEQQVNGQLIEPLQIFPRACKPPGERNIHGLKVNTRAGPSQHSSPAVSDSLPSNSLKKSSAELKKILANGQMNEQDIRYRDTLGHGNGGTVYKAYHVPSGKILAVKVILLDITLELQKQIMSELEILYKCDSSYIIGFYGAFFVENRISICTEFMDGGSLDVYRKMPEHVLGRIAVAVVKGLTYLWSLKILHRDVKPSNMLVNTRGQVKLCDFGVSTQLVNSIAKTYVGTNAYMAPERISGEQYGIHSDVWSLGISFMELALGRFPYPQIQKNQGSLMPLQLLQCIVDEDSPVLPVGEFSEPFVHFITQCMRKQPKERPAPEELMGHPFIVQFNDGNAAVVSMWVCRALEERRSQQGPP
# method.notes: biochemical
# Design: species or system HEK293/K-562/placenta mixed human extract; Kinobeads chemoproteomic competition binding, quantified by TMT LC-MS/MS, dose response up to 20 uM
pIC50: −log10 of the molar value.
measure: pIC50

Asked: Data request, read-out pIC50, for `COc1ccccc1-c1n[nH]c2nc(N[C@H]3CC[C@H](NS(=O)(=O)CCC(F)(F)F)CC3)nc(OC)c12`
Given back: ≤ 4.70

---

# assayed.system: NEK2 (Homo sapiens, UniProt P51955)
# Sequence (P51955 whole entry): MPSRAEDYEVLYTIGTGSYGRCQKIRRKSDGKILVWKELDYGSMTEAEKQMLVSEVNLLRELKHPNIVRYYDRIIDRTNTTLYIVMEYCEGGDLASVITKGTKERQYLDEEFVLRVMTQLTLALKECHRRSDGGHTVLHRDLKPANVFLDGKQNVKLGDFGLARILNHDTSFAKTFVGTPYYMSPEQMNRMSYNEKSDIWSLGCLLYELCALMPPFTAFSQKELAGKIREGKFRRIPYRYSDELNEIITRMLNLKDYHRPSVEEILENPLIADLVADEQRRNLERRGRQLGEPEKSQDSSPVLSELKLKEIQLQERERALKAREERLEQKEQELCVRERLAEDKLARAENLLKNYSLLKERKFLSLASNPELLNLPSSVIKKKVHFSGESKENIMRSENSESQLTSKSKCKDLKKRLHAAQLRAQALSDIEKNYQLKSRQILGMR
# method.notes: biochemical
# Set-up: species or system HEK293/K-562/placenta mixed human extract; Kinobeads chemoproteomic competition binding, quantified by TMT LC-MS/MS, dose response up to 20 uM
measure: IC50

Asked: Data request, read-out IC50, for `COc1nc(N[C@H]2CC[C@H](NS(=O)(=O)CC(C)C)CC2)nc2[nH]nc(N3CCOC[C@H]3C)c12`
Given back: ≥ 20 µM

---

# assayed.system: MAPK3 (Homo sapiens)
# Sequence (P27361 whole entry): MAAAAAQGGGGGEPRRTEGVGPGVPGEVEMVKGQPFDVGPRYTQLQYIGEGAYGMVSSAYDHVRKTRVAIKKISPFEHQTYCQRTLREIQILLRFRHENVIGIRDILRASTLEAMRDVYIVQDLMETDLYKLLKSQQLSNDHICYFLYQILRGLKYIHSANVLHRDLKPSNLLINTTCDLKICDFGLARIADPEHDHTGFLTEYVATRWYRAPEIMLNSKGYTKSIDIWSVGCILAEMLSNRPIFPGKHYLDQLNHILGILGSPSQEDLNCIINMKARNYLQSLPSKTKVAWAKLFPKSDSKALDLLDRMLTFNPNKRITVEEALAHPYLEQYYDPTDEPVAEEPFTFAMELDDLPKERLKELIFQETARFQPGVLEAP
# method.notes: biochemical
# Parameters: species or system HEK293/K-562/placenta mixed human extract; Kinobeads chemoproteomic competition binding, quantified by TMT LC-MS/MS, dose response up to 20 uM
measure: IC50

Asked: Data request, read-out IC50, for `COc1nc(N[C@H]2CC[C@H](NS(=O)(=O)CC(C)C)CC2)nc2[nH]nc(N3CCOC[C@H]3C)c12`
Given back: ≥ 20 µM

---

# assayed.system: CHEK2 (Homo sapiens, UniProt O96017)
# method.notes: biochemical
# Design: species or system HEK293/K-562/placenta mixed human extract; Kinobeads chemoproteomic competition binding, quantified by TMT LC-MS/MS, dose response up to 20 uM
pIC50: −log10 of the molar value.
measure: pIC50

Asked: What measured pIC50 is associated with `COc1nc(N[C@H]2CC[C@H](NS(=O)(=O)CC(C)C)CC2)nc2[nH]nc(N3CCOC[C@H]3C)c12` on CHEK2 (Homo sapiens, UniProt O96017)?
Given back: ≤ 4.70
